subject of test: T1, His-cynomolgus monkey LIGHT (cynomolgus monkey)
T1 construct: also called His-cynoLIGHT
T1 chain: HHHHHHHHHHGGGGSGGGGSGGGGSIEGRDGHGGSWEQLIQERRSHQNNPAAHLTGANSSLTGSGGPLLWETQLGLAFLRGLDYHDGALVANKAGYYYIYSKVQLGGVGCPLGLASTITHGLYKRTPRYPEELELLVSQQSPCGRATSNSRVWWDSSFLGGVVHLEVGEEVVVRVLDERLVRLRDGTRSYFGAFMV
run description: ELISA, His-cynoLIGHT coated
Measured pEC50, listed per entry.
Field pEC50 (float): negative decimal logarithm of the concentration in molar.

Example cases with answers are listed next.
binder: hum_LT-m37-16 (antibody, human IgG4, V domains shown, humanized from LT-m37) VH: QVQLVQSGAEVKKPGASVKVSCKASGYSFTGYFINWVRQAPGQGLEWIGRIYPYNVDTFYNQNFKGRVTMTADKSTSTAYMELSSLRSEDTAVYYCGRGTHYYGSSGAMDYWGQGTLVTVSS VL: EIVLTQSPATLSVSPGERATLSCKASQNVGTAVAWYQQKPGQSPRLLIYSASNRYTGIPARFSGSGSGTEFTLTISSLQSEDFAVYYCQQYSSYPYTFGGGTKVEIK
pEC50: 9.98

binder: LT-m37 (antibody, human IgG4, V domains shown) VH: QVQLKQSGAELVRPGTSVKVSCKASGYSFTGYFINWVKQSHGKSLEWIGRIYPYNVNTFYNQNFKGRATLTADKSSSTAHMELLSLTSEDSAVYYCGRGTHYYGSSGAMDYWGQGTSVTVSS VL: DILLTQSHKFMSTSVGDRVSITCKASQNVGTAVAWYQQKPGQSPKLLIYSASNRYTGVPDRFTGSGSGTDFTLTISNMQSEDLADYFCQQYSSYPYTFGGGTKLEIK
pEC50: 9.81

Then there is this binder:
The binder hum_LT-m37-12 (antibody, human IgG4, V domains shown, humanized from LT-m37) VH: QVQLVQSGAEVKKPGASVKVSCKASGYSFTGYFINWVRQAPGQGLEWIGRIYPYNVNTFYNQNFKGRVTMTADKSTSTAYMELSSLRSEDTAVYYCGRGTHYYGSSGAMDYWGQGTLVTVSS VL: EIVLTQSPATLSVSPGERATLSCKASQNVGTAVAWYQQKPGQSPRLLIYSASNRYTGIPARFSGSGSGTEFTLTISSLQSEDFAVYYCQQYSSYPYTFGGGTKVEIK showed pEC50 equal to 10.28
